Assay: Cytotoxicity against human HCT116 cells at 3 ug/mL by MTT assay
Assay type: cell-based, HCT-116
Settings: read-out: INH
Provide the recorded cytotoxicity at 3 ug/mL for the entries that follow.
Report the value in % with no unit label.

Ask: Note down cytotoxicity at 3 ug/mL recorded for Cc1ccc(C2SCC(=O)N2c2ccc(F)cc2)cc1 (stereo not drawn)
Reply: 1.1

Ask: Note down cytotoxicity at 3 ug/mL recorded for Cc1ccc(N2C(=O)CSC2c2ccccc2)cc1 (stereo not drawn)
Reply: 16.1

Ask: Note down cytotoxicity at 3 ug/mL recorded for COc1ccc(C2SCC(=O)N2c2ccc(Cl)cc2)cc1 (stereo not drawn)
Reply: -2.9

Ask: Note down cytotoxicity at 3 ug/mL recorded for O=C1CSC(c2ccccc2)N1c1ccc(Cl)cc1 (stereo not drawn)
Reply: 19

Ask: Note down cytotoxicity at 3 ug/mL recorded for Cc1ccc(C2SCC(=O)N2c2ccc(C)cc2)cc1 (stereo not drawn)
Reply: 9.7

Ask: Note down cytotoxicity at 3 ug/mL recorded for Cc1ccc(N2C(=O)CSC2c2ccc(Cl)cc2)cc1 (stereo not drawn)
Reply: -8.6

Ask: Note down cytotoxicity at 3 ug/mL recorded for O=C1CSC(c2ccc(O)cc2)N1c1ccc(Cl)cc1 (stereo not drawn)
Reply: 4.3

Ask: Note down cytotoxicity at 3 ug/mL recorded for O=C1CSC(c2ccc(F)cc2)N1c1ccc(Cl)cc1 (stereo not drawn)
Reply: 9.4

----------
Provide the recorded cytotoxicity at 10 ug/mL for the entries that follow.
Test: Cytotoxicity against human HCT116 cells at 10 ug/mL by MTT assay
Type: cell-based, HCT-116
Conditions: read-out: INH
Report the value in % with no unit label.

Ask: Note down cytotoxicity at 10 ug/mL recorded for Cc1ccc(C2SCC(=O)N2c2ccc(F)cc2)cc1 (centres undefined)
Reply: 9.1

Ask: Note down cytotoxicity at 10 ug/mL recorded for O=C1CSC(c2ccccc2)N1c1ccc(F)cc1 (centres undefined)
Reply: 5.3

Ask: Note down cytotoxicity at 10 ug/mL recorded for Cc1ccc(C2SCC(=O)N2c2ccc(C)cc2)cc1 (centres undefined)
Reply: 16.7

Ask: Note down cytotoxicity at 10 ug/mL recorded for O=C1CSC(c2ccc([N+](=O)[O-])cc2)N1c1ccccc1 (centres undefined)
Reply: 9
